Biological target: Receptor-interacting serine/threonine-protein kinase 3 (Homo sapiens); also: in the data inactive means no Kd found up to 30 µM
Sequence (Q9Y572 whole entry): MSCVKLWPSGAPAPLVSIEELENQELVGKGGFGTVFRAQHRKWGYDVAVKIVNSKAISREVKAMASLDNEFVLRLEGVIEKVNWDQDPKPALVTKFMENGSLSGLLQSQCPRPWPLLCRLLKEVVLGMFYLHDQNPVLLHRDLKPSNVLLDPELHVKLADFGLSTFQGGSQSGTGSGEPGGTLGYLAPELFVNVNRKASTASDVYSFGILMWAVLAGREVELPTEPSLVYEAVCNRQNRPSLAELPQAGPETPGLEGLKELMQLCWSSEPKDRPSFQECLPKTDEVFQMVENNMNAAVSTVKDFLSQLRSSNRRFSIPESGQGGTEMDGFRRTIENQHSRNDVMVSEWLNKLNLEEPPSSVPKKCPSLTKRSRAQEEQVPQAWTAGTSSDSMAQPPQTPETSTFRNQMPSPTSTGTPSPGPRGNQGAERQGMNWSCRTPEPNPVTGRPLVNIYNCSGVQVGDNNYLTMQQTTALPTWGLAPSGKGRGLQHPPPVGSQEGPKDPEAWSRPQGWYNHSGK
Active and inactive are the calls of the source.
Output constraint: value belongs to Y = active, N = inactive

Solved entries (count: 10):
{"columns": ["item.smiles", "assigned.class"],
 "data": [
  ["O[C@H]1CC[C@H](Nc2ncc3nc(Nc4c(F)cc(F)cc4F)n([C@H]4CCOC4)c3n2)CC1", "N"],
  ["S=C(NCc1ccc2c(c1)OCO2)N1CCN(c2ncnc3c2oc2ccccc23)CC1", "N"],
  ["CNC(=O)c1cccc(-c2ccc3c(N4CCOC[C@@H]4C)nc(N4CCOC[C@@H]4C)nc3n2)c1", "N"],
  ["CC[C@@](C)(Nc1ccnc(-c2c[nH]c3ncccc23)n1)C(=O)NCC(F)(F)F", "N"],
  ["Cc1cc(Nc2nc(N[C@@H](C)c3ncc(F)cn3)ncc2Cl)n[nH]1", "N"],
  ["C=CCN(/C=C1/C(=O)O[C@H](COC)[C@@]2(C)C1=C(O)C(=O)C1=C2[C@H](OC(C)=O)C[C@]2(C)C(=O)CC[C@@H]12)CC=C", "N"],
  ["Cn1cc(-c2[nH]c3cc(NC(=O)[C@H](N)C4CCCCC4)cc4c3c2C=NNC4=O)cn1", "N"],
  ["NC[C@@](O)(c1ccc(Cl)cc1)c1ccc(-c2cn[nH]c2)cc1", "N"],
  ["CN1CCN(c2nc(C3=C(c4c[nH]c5ccccc45)C(=O)NC3=O)c3ccccc3n2)CC1", "N"],
  ["CCc1cc2c(cc1N1CCC(N3CCOCC3)CC1)C(C)(C)c1[nH]c3cc(C#N)ccc3c1C2=O", "N"]
]}

Could you please tell me the result logged for O=C(O)c1ccc2c(c1)nc(Nc1cccc(Cl)c1)c1ccncc12 in this assay?
Y

###

Target: Cyclin-dependent kinase 1 (Homo sapiens, UniProt P06493); also: in the data inactive means no Kd found up to 30 µM
Sequence (P06493 whole entry): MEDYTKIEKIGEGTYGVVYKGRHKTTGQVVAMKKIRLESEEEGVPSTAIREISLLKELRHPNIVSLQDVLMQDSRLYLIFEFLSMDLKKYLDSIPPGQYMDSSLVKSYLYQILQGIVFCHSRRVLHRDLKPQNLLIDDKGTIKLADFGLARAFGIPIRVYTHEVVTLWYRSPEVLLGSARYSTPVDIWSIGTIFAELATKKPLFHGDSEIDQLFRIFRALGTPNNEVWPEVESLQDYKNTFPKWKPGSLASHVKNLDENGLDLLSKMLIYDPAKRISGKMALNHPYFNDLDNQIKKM
Activity calls are given as the source filed them.
Output constraint: value belongs to active, inactive

Solved entries (count: 6):
{"columns": ["item.smiles", "assigned.class"],
 "data": [
  ["CC(C)CC(=O)Nc1[nH]nc2c1CN(C(=O)C1CCN(C)CC1)C2(C)C", "active"],
  ["CC[C@@](C)(Nc1ccnc(-c2c[nH]c3ncccc23)n1)C(=O)NCC(F)(F)F", "inactive"],
  ["FC(F)(F)c1ccc(CNc2ccc(Cc3c[nH]c4ncc(Cl)cc34)cn2)cn1", "inactive"],
  ["Cc1cc(C(=O)Nc2cc(Oc3ccc4nc(NC(=O)C5CC5)cn4n3)ccc2C)n(C)n1", "inactive"],
  ["C[C@@H]1COC(Nc2ccc3ncnc(Nc4ccc(OCc5nccs5)c(Cl)c4)c3c2)=N1", "inactive"],
  ["COc1cc(Nc2ncc(F)c(Nc3ccc4c(n3)N(COP(=O)(O)O)C(=O)C(C)(C)O4)n2)cc(OC)c1OC", "inactive"]
]}

Attention now shifts to the item below.
Could you please tell me the result logged for Cc1c(NC(=O)OC[C@@H]2COCCN2)cn2ncnc(Nc3ccc4c(cnn4Cc4cccc(F)c4)c3)c12 in this assay?
inactive

###

Molecular target: Serine/threonine-protein kinase D3 (Homo sapiens, UniProt O94806); also: in the data inactive means no Kd found up to 30 µM
Sequence (O94806 whole entry): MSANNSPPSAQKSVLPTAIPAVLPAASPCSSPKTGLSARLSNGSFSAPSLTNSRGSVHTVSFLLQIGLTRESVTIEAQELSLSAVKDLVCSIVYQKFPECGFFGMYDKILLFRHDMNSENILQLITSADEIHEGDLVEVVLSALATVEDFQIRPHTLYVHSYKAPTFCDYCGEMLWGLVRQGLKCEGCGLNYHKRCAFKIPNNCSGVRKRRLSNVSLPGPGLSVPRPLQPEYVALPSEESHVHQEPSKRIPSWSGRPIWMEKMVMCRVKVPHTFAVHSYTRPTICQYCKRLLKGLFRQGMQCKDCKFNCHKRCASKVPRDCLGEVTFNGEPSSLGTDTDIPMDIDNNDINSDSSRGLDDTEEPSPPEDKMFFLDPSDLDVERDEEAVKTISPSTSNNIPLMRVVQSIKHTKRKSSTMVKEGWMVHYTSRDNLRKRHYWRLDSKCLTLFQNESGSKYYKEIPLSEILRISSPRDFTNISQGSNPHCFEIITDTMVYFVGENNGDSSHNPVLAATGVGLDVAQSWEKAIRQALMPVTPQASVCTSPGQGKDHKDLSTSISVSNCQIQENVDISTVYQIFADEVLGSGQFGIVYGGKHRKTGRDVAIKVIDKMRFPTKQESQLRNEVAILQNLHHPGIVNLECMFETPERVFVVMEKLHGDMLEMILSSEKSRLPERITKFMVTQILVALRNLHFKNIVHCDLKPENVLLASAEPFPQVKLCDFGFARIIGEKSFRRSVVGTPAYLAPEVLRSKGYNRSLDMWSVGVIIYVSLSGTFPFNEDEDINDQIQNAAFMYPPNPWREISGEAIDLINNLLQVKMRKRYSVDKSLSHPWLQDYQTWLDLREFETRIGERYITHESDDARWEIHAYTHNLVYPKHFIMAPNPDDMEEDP
The source made the active and inactive calls.
Output constraint: value belongs to active, inactive

{"columns": ["compound", "assigned.class"],
 "data": [
  ["Cn1cc(-c2[nH]c3cc(NC(=O)[C@H](N)C4CCCCC4)cc4c3c2C=NNC4=O)cn1", "inactive"],
  ["CCc1cc2c(cc1N1CCC(N3CCOCC3)CC1)C(C)(C)c1[nH]c3cc(C#N)ccc3c1C2=O [ALECTINIB]", "inactive"],
  ["S=C(NCc1ccc2c(c1)OCO2)N1CCN(c2ncnc3c2oc2ccccc23)CC1 [AMUVATINIB]", "inactive"],
  ["C[C@@H]1COC(Nc2ccc3ncnc(Nc4ccc(OCc5nccs5)c(Cl)c4)c3c2)=N1 [VARLITINIB]", "inactive"],
  ["CC1(COc2ccc3c(c2)ncn3-c2ccc3cccc(N4CCC(N)CC4)c3n2)COC1 [CRENOLANIB]", "active"]
]}

Could you please tell me the result logged for CCN1CCN(Cc2ccc(Nc3ncc(F)c(-c4cc(F)c5nc(C)n(C(C)C)c5c4)n3)nc2)CC1 [ABEMACICLIB] in this assay?
active

Could you please tell me the result logged for O=C(NC[C@H](O)CO)c1ccncc1Nc1ccc(I)cc1F [PIMASERTIB] in this assay?
inactive

Could you please tell me the result logged for CNC(=O)c1cc(COc2nnc(Nc3ccc(Cl)cc3)c3ccoc23)ccn1 [TELATINIB] in this assay?
inactive

Could you please tell me the result logged for Cc1cc(Nc2nc(N[C@@H](C)c3ncc(F)cn3)ncc2Cl)n[nH]1 [AZD-1480] in this assay?
inactive

###

Biological target: UniProt:P11274
Sequence (P11274 whole entry): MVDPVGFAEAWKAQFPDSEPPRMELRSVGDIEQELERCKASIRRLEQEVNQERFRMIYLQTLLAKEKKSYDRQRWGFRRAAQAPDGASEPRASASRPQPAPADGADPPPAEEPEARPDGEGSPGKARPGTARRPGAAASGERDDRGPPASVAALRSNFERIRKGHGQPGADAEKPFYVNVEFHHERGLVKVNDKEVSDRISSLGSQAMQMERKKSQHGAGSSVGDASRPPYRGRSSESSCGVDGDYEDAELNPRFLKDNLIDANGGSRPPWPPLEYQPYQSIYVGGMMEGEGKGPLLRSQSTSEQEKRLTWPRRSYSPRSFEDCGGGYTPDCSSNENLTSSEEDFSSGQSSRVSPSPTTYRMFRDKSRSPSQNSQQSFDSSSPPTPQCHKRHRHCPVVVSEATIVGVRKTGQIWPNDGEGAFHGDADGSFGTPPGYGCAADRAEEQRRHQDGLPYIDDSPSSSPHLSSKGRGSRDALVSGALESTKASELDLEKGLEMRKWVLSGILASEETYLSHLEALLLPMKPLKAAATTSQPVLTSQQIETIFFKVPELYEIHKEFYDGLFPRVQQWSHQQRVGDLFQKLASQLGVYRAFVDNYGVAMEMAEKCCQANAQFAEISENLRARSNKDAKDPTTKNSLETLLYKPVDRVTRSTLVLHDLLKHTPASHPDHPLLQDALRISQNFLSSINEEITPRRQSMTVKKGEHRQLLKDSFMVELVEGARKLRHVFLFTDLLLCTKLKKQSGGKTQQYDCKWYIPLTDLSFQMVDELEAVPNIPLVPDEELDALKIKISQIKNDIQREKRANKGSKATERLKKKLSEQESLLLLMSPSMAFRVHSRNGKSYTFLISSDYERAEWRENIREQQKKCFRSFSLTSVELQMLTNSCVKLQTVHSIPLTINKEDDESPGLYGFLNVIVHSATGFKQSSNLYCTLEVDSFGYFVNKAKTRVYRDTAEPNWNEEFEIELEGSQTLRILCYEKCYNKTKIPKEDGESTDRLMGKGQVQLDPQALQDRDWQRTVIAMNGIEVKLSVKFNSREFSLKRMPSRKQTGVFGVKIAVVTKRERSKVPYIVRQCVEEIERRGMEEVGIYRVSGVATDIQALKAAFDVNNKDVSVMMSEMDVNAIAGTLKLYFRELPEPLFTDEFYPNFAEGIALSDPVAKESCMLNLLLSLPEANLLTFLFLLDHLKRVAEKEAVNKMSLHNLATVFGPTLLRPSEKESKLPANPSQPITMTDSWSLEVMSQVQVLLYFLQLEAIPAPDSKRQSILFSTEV
Activity calls are given as the source filed them.
Output constraint: value belongs to active, inactive

{"columns": ["compound", "study.target", "assigned.class"],
 "data": [
  ["Cc1cc(C(=O)Nc2cc(Oc3ccc4nc(NC(=O)C5CC5)cn4n3)ccc2C)n(C)n1", "UniProt:P11274", "active"],
  ["COCCN1CCN(Cc2ccc(-c3n[nH]c4c3C(=O)c3c(NC(=O)NN5CCOCC5)cccc3-4)cc2)CC1", "UniProt:P11274", "active"],
  ["C[C@@H]1COC(Nc2ccc3ncnc(Nc4ccc(OCc5nccs5)c(Cl)c4)c3c2)=N1", "UniProt:P11274", "inactive"],
  ["O=C(NC[C@H](O)CO)c1ccncc1Nc1ccc(I)cc1F", "UniProt:P11274", "inactive"],
  ["C[C@@]1(C(=O)Nc2ccc(F)nc2)CCCN1c1nc(Nc2cc(C3CC3)n[nH]2)c2cccn2n1", "UniProt:P11274", "inactive"]
]}

Could you please tell me the result logged for C=CC(=O)Nc1cc(Nc2nccc(-c3cn(C)c4ccccc34)n2)c(OC)cc1N(C)CCN(C)C in this assay?
inactive

Could you please tell me the result logged for CC1(C)CNc2cc(NC(=O)c3cccnc3NCc3ccncc3)ccc21 in this assay?
inactive

Could you please tell me the result logged for C#Cc1cccc(Nc2ncnc3cc4c(cc23)OCCOCCOCCO4)c1 in this assay?
inactive

Could you please tell me the result logged for COc1cc2ncnc(Nc3ccc(F)c(Cl)c3)c2cc1NC(=O)/C=C/CN1CCCCC1 [DACOMITINIB ANHYDROUS] in this assay?
inactive

Could you please tell me the result logged for Cc1c(NC(=O)OC[C@@H]2COCCN2)cn2ncnc(Nc3ccc4c(cnn4Cc4cccc(F)c4)c3)c12 in this assay?
inactive

Could you please tell me the result logged for Cn1cnc2c(F)c(Nc3ccc(Br)cc3Cl)c(C(=O)NOCCO)cc21 in this assay?
inactive

Could you please tell me the result logged for Cn1cc(-c2[nH]c3cc(NC(=O)[C@H](N)C4CCCCC4)cc4c3c2C=NNC4=O)cn1 in this assay?
active

Could you please tell me the result logged for NC(=O)c1ccc(N(C(N)=O)c2c(F)cccc2F)nc1-c1ccc(F)cc1F in this assay?
inactive

Could you please tell me the result logged for COc1cc2ncnc(Nc3ccc(O)cc3)c2cc1OC in this assay?
inactive

Could you please tell me the result logged for CCc1nc(C(N)=O)c(Nc2ccc(N3CCC(N4CCN(C)CC4)CC3)c(OC)c2)nc1NC1CCOCC1 in this assay?
inactive
